Experimental target: Calcium/calmodulin-dependent protein kinase type II subunit delta (Homo sapiens)
Condition context: at 1 µM

Molecule	Unit tag	residual activity
CCc1nc(-c2ccc(OC)cc2)[nH]c1-c1ccncc1	%	110
O=C1NC(=O)c2c1c1c3ccccc3n3c1c1c2c2ccccc2n1C1CCC3O1	%	-1
CCn1cnc2c(Nc3cccc(Cl)c3)nc(N[C@@H]3CCCC[C@@H]3N)nc21	%	44
O=[N+]([O-])/C=C/c1ccc2c(c1)OCO2	%	109
COc1ccc2c(c1)/C(=C/c1cnc[nH]1)C(=O)N2	%	42
COc1cc(OC)c(/C=C2\C(=O)Nc3ccccc32)c(OC)c1	%	107
O=c1[nH]c2ccccc2n1C1CCN(Cc2ccc(-c3nc4cc5[nH]cnc5cc4nc3-c3ccccc3)cc2)CC1	%	102
C[S+]([O-])c1ccc(-c2nc(-c3ccc(F)cc3)c(-c3ccncc3)[nH]2)cc1 (centres undefined)	%	108
CC(C)(C)c1cc(C=C(C#N)C#N)cc(Br)c1O	%	104

* * *

Experimental target: Mitogen-activated protein kinase 11 (Homo sapiens) (UniProt Q15759)
Sequence (Q15759 whole entry): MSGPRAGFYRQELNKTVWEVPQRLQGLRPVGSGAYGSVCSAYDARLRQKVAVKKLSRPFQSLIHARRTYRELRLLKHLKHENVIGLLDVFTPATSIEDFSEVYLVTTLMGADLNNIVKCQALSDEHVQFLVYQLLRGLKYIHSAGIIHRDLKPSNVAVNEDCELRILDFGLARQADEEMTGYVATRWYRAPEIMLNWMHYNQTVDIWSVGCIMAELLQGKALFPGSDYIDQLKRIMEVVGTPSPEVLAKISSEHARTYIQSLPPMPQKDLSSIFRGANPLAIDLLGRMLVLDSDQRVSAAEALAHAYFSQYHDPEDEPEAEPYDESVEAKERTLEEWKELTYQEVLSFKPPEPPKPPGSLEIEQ
Condition context: at 1 µM
Quantity measured: residual activity (%)

Structure smiles	Quantity measured	Unit tag	Test result
O=c1[nH]c2ccccc2n1C1CCN(Cc2ccc(-c3nc4cc5[nH]cnc5cc4nc3-c3ccccc3)cc2)CC1	residual activity	%	100
COc1cc2ncnc(Nc3ccc(OCc4ccccc4)cc3)c2cc1OC	residual activity	%	107
COC(=O)[C@@]1(O)C[C@H]2O[C@]1(C)n1c3ccccc3c3c4c(c5c6ccccc6n2c5c31)C(=O)NC4	residual activity	%	77
O=C1c2ccccc2-c2nc3nnnn3nc21	residual activity	%	102
O=[N+]([O-])/C=C/c1ccc2c(c1)OCO2	residual activity	%	102

* * *

Reported residual activity by item:
Experimental target: Phosphorylase b kinase gamma catalytic chain, liver/testis isoform (Homo sapiens)
Condition context: at 1 µM
Quantity measured: residual activity

Compound	Test result
CC(C)(C)c1cc(C=C(C#N)C#N)cc(Br)c1O	115%
c1cc(-c2cnn3cc(-c4ccc(OCCN5CCCCC5)cc4)cnc23)ccn1	34%
C[S+]([O-])c1ccc(-c2nc(-c3ccc(F)cc3)c(-c3ccncc3)[nH]2)cc1 (stereo not drawn)	109%
O=[N+]([O-])/C=C/c1ccc2c(c1)OCO2	105%
CC(C)[C@H](CO)Nc1nc(Nc2cccc(Cl)c2)c2ncn(C(C)C)c2n1	122%
O=C1c2ccccc2-c2nc3nnnn3nc21	103%
COc1ccc2c(c[n+](C)c3c4cc5c(cc4ccc23)OCO5)c1OC	111%
O=c1[nH]c2ccccc2n1C1CCN(Cc2ccc(-c3nc4cc5[nH]cnc5cc4nc3-c3ccccc3)cc2)CC1	101%

* * *

Documented residual activity across a set of compounds
Experimental target: PAS domain-containing serine/threonine-protein kinase (Homo sapiens)
Condition context: at 1 µM
Quantity measured: residual activity (%)

Structure smiles	Test result
Nc1n[nH]c2nnc(-c3c(-c4ccccc4)nn4ccccc34)cc12	104
O=C1Nc2cc(Br)ccc2/C1=C1/Nc2ccccc2/C1=N\O	94
O=c1cc(N2CCOCC2)oc2c1ccc1ccccc12	141
N#C/C(=C(\N)Sc1ccc(N)cc1)c1ccccc1C(F)(F)F	122
CCOC(=O)c1c(C)[nH]c(/C=C2\C(=O)Nc3ccccc32)c1C	93
CC(C)N(CCC(=O)c1ccc2ccccc2c1)Cc1ccccc1	126
Nc1ncnc2c1c(-c1ccc(Oc3ccccc3)cc1)cn2C1CCCC1	108
CC[n+]1c(/C=C/N(C)c2ccccc2)n(-c2ccccc2)c2ccc(-c3nc4ccccc4s3)cc21	80
COc1cc2nccc(Oc3ccc(NC(=O)Nc4cc(C)on4)c(Cl)c3)c2cc1OC	100
CCN(CC)C(=O)c1ccc(Nc2nc(OCC3CCCCC3)c3nc[nH]c3n2)cc1	135

* * *

Experimental target: Dual specificity mitogen-activated protein kinase kinase 6 (Homo sapiens) (UniProt P52564)
Sequence (P52564 whole entry): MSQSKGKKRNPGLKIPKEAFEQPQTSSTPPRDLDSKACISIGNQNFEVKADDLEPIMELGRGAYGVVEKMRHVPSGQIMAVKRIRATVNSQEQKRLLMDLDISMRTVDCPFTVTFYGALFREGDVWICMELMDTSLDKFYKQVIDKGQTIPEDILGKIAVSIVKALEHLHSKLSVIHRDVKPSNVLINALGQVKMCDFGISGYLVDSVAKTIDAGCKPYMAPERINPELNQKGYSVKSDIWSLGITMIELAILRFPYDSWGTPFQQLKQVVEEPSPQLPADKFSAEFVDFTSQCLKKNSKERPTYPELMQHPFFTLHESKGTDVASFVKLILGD
Condition context: at 10 µM
Quantity measured: residual activity (%)

Molecule	Unit tag	Test result
C[S+]([O-])c1ccc(-c2nc(-c3ccc(F)cc3)c(-c3ccncc3)[nH]2)cc1 (stereo unspecified)	%	3
COc1cc(OC)c(/C=C2\C(=O)Nc3ccccc32)c(OC)c1	%	87
O=C1c2ccccc2-c2nc3nnnn3nc21	%	116
COc1ccc2c(c[n+](C)c3c4cc5c(cc4ccc23)OCO5)c1OC	%	130
CC(C)(C)c1cc(C=C(C#N)C#N)cc(Br)c1O	%	115
O=c1[nH]c2ccccc2n1C1CCN(Cc2ccc(-c3nc4cc5[nH]cnc5cc4nc3-c3ccccc3)cc2)CC1	%	90

* * *

Experimental target: Macrophage colony-stimulating factor 1 receptor (Homo sapiens) (UniProt P07333)
Sequence (P07333 whole entry): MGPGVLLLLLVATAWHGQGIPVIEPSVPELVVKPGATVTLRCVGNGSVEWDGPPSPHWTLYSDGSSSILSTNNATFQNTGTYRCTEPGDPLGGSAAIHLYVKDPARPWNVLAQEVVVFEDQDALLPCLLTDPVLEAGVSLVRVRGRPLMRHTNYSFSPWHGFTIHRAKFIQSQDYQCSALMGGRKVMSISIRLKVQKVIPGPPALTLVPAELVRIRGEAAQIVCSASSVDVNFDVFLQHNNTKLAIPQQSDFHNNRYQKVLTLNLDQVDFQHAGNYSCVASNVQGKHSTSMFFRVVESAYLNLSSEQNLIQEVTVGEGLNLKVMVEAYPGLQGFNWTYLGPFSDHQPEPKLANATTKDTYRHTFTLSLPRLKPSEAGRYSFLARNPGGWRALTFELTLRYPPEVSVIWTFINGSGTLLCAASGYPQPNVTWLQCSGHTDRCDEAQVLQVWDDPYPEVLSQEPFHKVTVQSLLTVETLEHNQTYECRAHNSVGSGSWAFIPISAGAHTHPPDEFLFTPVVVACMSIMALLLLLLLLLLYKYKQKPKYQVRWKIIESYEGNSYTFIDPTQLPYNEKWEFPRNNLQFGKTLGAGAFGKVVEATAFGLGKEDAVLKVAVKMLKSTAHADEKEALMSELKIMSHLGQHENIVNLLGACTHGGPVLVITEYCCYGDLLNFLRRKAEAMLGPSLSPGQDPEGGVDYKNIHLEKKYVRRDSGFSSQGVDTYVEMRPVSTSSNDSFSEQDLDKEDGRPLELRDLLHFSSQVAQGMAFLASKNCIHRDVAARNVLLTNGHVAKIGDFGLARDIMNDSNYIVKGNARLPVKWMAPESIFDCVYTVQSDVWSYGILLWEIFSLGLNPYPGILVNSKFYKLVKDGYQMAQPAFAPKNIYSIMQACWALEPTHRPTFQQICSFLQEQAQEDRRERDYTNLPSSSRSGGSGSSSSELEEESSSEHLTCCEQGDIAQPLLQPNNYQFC
Condition context: at 1 µM
// classify: if (residual activity < 20%) true (1) else false (0)

Compound	Discrete label
N/C(=N\[N+](=O)[O-])N/N=C\c1ccc(-c2cccc([N+](=O)[O-])c2)o1	false (0)
COc1cc(OC)c(/C=C2\C(=O)Nc3ccccc32)c(OC)c1	false (0)
c1cc(-c2cnn3cc(-c4ccc(OCCN5CCCCC5)cc4)cnc23)ccn1	true (1)
O=c1[nH]c2ccccc2n1C1CCN(Cc2ccc(-c3nc4cc5[nH]cnc5cc4nc3-c3ccccc3)cc2)CC1	false (0)
CCn1cnc2c(Nc3cccc(Cl)c3)nc(N[C@@H]3CCCC[C@@H]3N)nc21	false (0)
CC(C)(C)c1cc(C=C(C#N)C#N)cc(Br)c1O	false (0)
COC(=O)[C@@]1(O)C[C@H]2O[C@]1(C)n1c3ccccc3c3c4c(c5c6ccccc6n2c5c31)C(=O)NC4	true (1)
O=C1Nc2ccc3ncsc3c2/C1=C/c1c[nH]cn1	false (0)
CC(C)[C@H](CO)Nc1nc(Nc2cccc(Cl)c2)c2ncn(C(C)C)c2n1	false (0)
C[S+]([O-])c1ccc(-c2nc(-c3ccc(F)cc3)c(-c3ccncc3)[nH]2)cc1 (stereo unspecified)	false (0)

* * *

Quick reference: residual activity of the listed items.
Experimental target: Tyrosine-protein kinase Lck (Homo sapiens) (UniProt P06239)
Sequence (P06239 2-509 limits assumed): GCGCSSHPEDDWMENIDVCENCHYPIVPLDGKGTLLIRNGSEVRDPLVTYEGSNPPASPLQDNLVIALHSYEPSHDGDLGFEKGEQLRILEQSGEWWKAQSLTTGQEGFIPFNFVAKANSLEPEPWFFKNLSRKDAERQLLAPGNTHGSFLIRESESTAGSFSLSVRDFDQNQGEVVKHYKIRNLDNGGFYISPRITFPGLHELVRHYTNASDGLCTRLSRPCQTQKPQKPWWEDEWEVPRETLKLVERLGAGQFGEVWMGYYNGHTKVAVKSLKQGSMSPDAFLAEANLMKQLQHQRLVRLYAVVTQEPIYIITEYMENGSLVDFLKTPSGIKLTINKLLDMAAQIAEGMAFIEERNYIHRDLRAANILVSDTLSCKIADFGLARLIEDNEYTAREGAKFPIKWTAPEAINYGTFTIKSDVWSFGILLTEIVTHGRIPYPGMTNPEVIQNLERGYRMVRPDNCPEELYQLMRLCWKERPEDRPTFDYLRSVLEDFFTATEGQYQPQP
Condition context: at 10 µM

Compound	residual activity, %
CC(C)[C@H](CO)Nc1nc(Nc2cccc(Cl)c2)c2ncn(C(C)C)c2n1	8
O=C1Nc2ccc3ncsc3c2/C1=C/c1c[nH]cn1	23
CCn1cnc2c(Nc3cccc(Cl)c3)nc(N[C@@H]3CCCC[C@@H]3N)nc21	20
COC(=O)[C@@]1(O)C[C@H]2O[C@]1(C)n1c3ccccc3c3c4c(c5c6ccccc6n2c5c31)C(=O)NC4	8
N/C(=N\[N+](=O)[O-])N/N=C\c1ccc(-c2cccc([N+](=O)[O-])c2)o1	91
c1cc(-c2cnn3cc(-c4ccc(OCCN5CCCCC5)cc4)cnc23)ccn1	10
C[S+]([O-])c1ccc(-c2nc(-c3ccc(F)cc3)c(-c3ccncc3)[nH]2)cc1 (configuration not stated)	32

* * *

Experimental target: Tyrosine-protein kinase Fes/Fps (Homo sapiens)
Condition context: at 1 µM
Quantity measured: residual activity (%)

Structure smiles	Test result
COc1cc2ncnc(Nc3ccc(OCc4ccccc4)cc3)c2cc1OC	131
O=c1[nH]c2ccccc2n1C1CCN(Cc2ccc(-c3nc4cc5[nH]cnc5cc4nc3-c3ccccc3)cc2)CC1	120
COc1cc(OC)c(/C=C2\C(=O)Nc3ccccc32)c(OC)c1	102
c1cc(-c2cnn3cc(-c4ccc(OCCN5CCCCC5)cc4)cnc23)ccn1	87
CC(C)[C@H](CO)Nc1nc(Nc2cccc(Cl)c2)c2ncn(C(C)C)c2n1	79

* * *

Experimental target: ALK tyrosine kinase receptor (Homo sapiens) (UniProt Q9UM73)
Sequence (Q9UM73 19-1620 limits assumed): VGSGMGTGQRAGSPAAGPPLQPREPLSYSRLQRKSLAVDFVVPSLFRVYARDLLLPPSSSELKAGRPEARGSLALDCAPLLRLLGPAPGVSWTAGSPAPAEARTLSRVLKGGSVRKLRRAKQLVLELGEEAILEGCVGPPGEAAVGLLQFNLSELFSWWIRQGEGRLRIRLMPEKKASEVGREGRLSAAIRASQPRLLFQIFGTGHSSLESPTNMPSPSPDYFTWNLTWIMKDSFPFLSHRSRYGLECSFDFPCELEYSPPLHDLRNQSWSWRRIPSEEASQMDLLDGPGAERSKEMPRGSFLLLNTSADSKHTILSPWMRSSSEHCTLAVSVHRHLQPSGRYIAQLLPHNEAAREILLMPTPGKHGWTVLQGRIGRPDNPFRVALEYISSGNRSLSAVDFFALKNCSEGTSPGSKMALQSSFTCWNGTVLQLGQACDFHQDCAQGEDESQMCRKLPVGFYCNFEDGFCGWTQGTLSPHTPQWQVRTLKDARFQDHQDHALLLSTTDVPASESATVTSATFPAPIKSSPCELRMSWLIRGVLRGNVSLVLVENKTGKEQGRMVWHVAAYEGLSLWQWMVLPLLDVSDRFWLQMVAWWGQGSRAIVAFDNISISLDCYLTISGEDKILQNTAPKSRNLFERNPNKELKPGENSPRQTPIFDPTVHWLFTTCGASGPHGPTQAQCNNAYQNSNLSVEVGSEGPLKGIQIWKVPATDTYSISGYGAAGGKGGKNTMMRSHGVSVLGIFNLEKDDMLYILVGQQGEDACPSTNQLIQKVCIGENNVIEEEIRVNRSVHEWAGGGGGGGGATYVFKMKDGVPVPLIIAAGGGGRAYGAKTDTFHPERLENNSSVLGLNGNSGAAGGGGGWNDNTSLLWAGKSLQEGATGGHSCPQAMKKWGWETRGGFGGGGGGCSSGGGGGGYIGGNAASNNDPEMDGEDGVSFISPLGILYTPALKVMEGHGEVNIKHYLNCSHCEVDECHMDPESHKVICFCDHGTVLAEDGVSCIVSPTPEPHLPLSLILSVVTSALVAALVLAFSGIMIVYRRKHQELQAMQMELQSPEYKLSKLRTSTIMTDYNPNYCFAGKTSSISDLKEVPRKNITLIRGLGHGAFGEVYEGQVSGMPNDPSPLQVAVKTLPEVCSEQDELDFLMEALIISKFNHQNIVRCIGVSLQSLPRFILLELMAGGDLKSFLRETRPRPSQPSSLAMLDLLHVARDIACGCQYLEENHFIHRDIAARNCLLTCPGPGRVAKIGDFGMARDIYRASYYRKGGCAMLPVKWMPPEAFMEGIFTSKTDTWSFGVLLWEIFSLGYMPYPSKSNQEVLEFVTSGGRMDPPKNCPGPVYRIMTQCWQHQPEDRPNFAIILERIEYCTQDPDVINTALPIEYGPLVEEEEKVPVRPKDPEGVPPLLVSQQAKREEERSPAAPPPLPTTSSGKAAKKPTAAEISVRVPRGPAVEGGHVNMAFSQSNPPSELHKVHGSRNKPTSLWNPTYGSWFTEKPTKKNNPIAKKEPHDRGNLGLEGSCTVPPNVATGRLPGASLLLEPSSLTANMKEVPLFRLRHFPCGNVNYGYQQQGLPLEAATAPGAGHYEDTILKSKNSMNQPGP
Condition context: at 10 µM
Measured residual activity, listed per entry for reference.

Structure smiles	Unit tag	residual activity
COc1cc2ncnc(Nc3ccc(OCc4ccccc4)cc3)c2cc1OC	%	76
CC(C)[C@H](CO)Nc1nc(Nc2cccc(Cl)c2)c2ncn(C(C)C)c2n1	%	26
COc1ccc2c(c1)/C(=C/c1cnc[nH]1)C(=O)N2	%	81
CCn1cnc2c(Nc3cccc(Cl)c3)nc(N[C@@H]3CCCC[C@@H]3N)nc21	%	34
N/C(=N\[N+](=O)[O-])N/N=C\c1ccc(-c2cccc([N+](=O)[O-])c2)o1	%	69
O=[N+]([O-])/C=C/c1ccc2c(c1)OCO2	%	101

* * *

Experimental target: Tyrosine-protein kinase SYK (Homo sapiens) (UniProt P43405)
Condition context: at 10 µM
Quantity measured: residual activity

Compound	Test result
COC(=O)[C@@]1(O)C[C@H]2O[C@]1(C)n1c3ccccc3c3c4c(c5c6ccccc6n2c5c31)C(=O)NC4	2%
O=c1[nH]c2ccccc2n1C1CCN(Cc2ccc(-c3nc4cc5[nH]cnc5cc4nc3-c3ccccc3)cc2)CC1	76%
CC(C)[C@H](CO)Nc1nc(Nc2cccc(Cl)c2)c2ncn(C(C)C)c2n1	60%
COc1cc2ncnc(Nc3ccc(OCc4ccccc4)cc3)c2cc1OC	82%
c1cc(-c2cnn3cc(-c4ccc(OCCN5CCCCC5)cc4)cnc23)ccn1	59%
C[S+]([O-])c1ccc(-c2nc(-c3ccc(F)cc3)c(-c3ccncc3)[nH]2)cc1 (configuration not stated)	101%
COc1cc(OC)c(/C=C2\C(=O)Nc3ccccc32)c(OC)c1	96%
